- assay: Pharmacokinetics in rats after oral administration
- Type: in vivo, SD rat
- condition: Sprague-Dawley, rat, serum, po, 20 mg/kg, oral 20 mg/kg, 1% methyl-cellulose, SD rat; Mean
quantity.measured: half-life (h)

smi=Cc1cc(OC(C)C)cc(C)c1-c1csc(NC(=O)c2ccncc2)n1 quantity_measured=half-life endpoint_result=4.41

* * *

- Tested on: Hela
- assay: Antiproliferative activity (MTS assay), Hela
- Format: cell-based
- condition: Hela cells, 96 hours
- Description: Antiproliferative effect is expressed as IC50 values in microMolar final concentration. Cells were grown at 37° C. in a humidified atmosphere with 5% CO2 and 95% air. Cells were seeded in 96 well tissue culture plates. Compound treatment started after overnight incubation of cells (TO). […] Cell viability was then determined by MTS assay using CellTiter 96® AQueous non-radioactive cell proliferation assay system (Promega). […]
quantity.measured: IC50 (nM)

molecule="Cc1cc(C)c(-c2csc(NC(=O)c3ccnc(Cl)c3)n2)c(C)c1 [Compound 81]" quantity_measured=IC50 reading_unit=nM endpoint_result=860

* * *

- assay: Pharmacokinetics in rats after i.v. injection
- Assay type: in vivo, SD rat
- condition: Sprague-Dawley, rat, serum, iv, 2 mg/kg, i.v. 2 mg/kg, 5% DMSO, 10% Cremophor, 85% WFI, SD rat; Mean
quantity.measured: half-life

smi=Cc1cc(OC(C)C)cc(C)c1-c1csc(NC(=O)c2ccncc2)n1 endpoint_result="5.14 h"

* * *

- assay: Pharmacokinetics in rats after oral administration
- Format: in vivo, SD rat
- condition: Sprague-Dawley, rat, serum, po, 20 mg/kg, compound 42 oral, formulation and route otherwise identical to compound 82, SD rat; Mean
- Protocol: Bioavailability: Selected compounds were administered to rats per os or via injection following well known procedures.
quantity.measured: half-life

smi=COc1cc(C)c(-c2csc(NC(=O)c3ccncc3)n2)c(C)c1 endpoint_result="3.18 h"

* * *

- assay: Pharmacokinetics in rats after oral administration
- Format: in vivo, SD rat
- condition: Sprague-Dawley, rat, serum, po, 20 mg/kg, oral 20 mg/kg, 1% methyl-cellulose, SD rat; Mean; read-out: MRT0-inf
quantity.measured: MRT inf (h)

smi=Cc1cc(OC(C)C)cc(C)c1-c1csc(NC(=O)c2ccncc2)n1 endpoint_result=7.73

* * *

- assay: Pharmacokinetics in rats after oral administration
- Assay type: in vivo, SD rat
- condition: Sprague-Dawley, rat, serum, po, 20 mg/kg, compound 42 oral, SD rat; individual rats No. 1-3; read-out: Tmax
quantity.measured: Tmax

smi=COc1cc(C)c(-c2csc(NC(=O)c3ccncc3)n2)c(C)c1 endpoint_result="1.5 h"

* * *

- assay: Pharmacokinetics in rats after i.v. injection
- Assay type: in vivo, SD rat
- condition: Sprague-Dawley, rat, serum, iv, 2 mg/kg, i.v. 2 mg/kg, SD rat; individual rats No. 1-3; read-out: C0
quantity.measured: C0 (ng/mL)

compound="Cc1cc(OC(C)C)cc(C)c1-c1csc(NC(=O)c2ccncc2)n1 [Compound 82]" quantity_measured=C0 endpoint_result=8180

* * *

- assay: Pharmacokinetics in rats after i.v. injection
- Format: in vivo, SD rat
- condition: Sprague-Dawley, rat, serum, iv, 2 mg/kg, compound 42 i.v., formulation and route otherwise identical to compound 82, SD rat; Mean; read-out: C0
quantity.measured: C0

smi=COc1cc(C)c(-c2csc(NC(=O)c3ccncc3)n2)c(C)c1 quantity_measured=C0 endpoint_result="11500 ng/mL"

All values here come from patent US8946268B2.
